meta.source: the emibetuzumab library of Makowski et al. (2022)

B1: VH:VL chains; a variant is named by its letters at X, in order (parent)
chain 1: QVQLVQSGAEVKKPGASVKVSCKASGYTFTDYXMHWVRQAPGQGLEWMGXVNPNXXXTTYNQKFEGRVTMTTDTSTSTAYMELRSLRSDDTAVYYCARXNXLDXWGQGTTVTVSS
chain 2: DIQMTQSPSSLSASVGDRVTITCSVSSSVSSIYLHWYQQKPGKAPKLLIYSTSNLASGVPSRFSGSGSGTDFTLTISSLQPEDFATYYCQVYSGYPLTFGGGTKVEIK

Variants of: B1
Assay: yeast display scFab, FACS + sequencing
Settings: with MET
Some of the results follow. The hit rate among all sequences tested is not known here.
Measurement label: antigen binding call

Mutation spec | antigen binding call
VEGKGAGD | no binding
DGGTNDGA | no binding
VGGTSSAD | no binding
VTTKSFGV | no binding
SEGRGAAA | no binding
DKGGGDVA | no binding
YARADDGS | no binding
DAEGDDGA | no binding

Parameter requested: antigen binding call. Apply to each item below.
1. FAKEGDGD
2. VAGTGDGY
3. YTGTSDLD
4. YAEESDWV
5. VRARGDGY

OUTPUT:
["no binding", "no binding", "no binding", "no binding", "binds"]

# batch size: 5; output antigen binding call per entry
1. VAGKGVLD
2. VRERGAWD
3. DREEGDGV
4. VTERGSLD
5. SEGTSAVF

OUTPUT:
1. no binding
2. binds
3. no binding
4. no binding
5. no binding

List the reported antigen binding call of each variant below.
1. YKRGDSSS
2. VKAGGDVY
3. DGRGDALS

OUTPUT:
binds
no binding
no binding

Provide reported antigen binding call for each item, in the same order as listed.
1. YRRRGFVD
2. YRRRGSLV
3. VRGKGAWD
4. VTGGDDGY
5. SKERGDWY
6. VTGGSDVY
7. SKKRGAWA
8. YRRRGSVV

OUTPUT:
1: binds; 2: binds; 3: binds; 4: no binding; 5: no binding; 6: no binding; 7: binds; 8: binds

Below is a list of variants. For each, state its recorded antigen binding call.
1. YKRGDDSS
2. SKERGDAA
3. DTGTSAAF

OUTPUT:
1. no binding
2. no binding
3. no binding

For each of the items listed, what is its antigen binding call?
1. DGGTNDVA
2. SEKGGSSA
3. YRARGDLD
4. VRTEDDWY
5. SKKRGAWY
6. VTGGGDGS

OUTPUT:
1: no binding; 2: no binding; 3: binds; 4: no binding; 5: binds; 6: no binding
